Test system: HEK293
assay comment: Viability assay (CellTiter-Glo), HEK293
Type: cell-based, human
assay setup: HEK293, 120 μM
measure name: toxicity at 120 μM (in words)

Sample answers from the record:
{"compound": "CCc1noc(-c2ncn3c2[C@@H](C)N=C(c2ccccc2F)c2cc(C4CC4)ccc2-3)n1", "assayed target": "HEK293", "toxicity at 120 μM (in words)": "some cytotoxicity"}
{"compound": "Cc1noc(-c2ncn3c2[C@@H](C)N=C(c2ccccc2F)c2cc(C4CC4)ccc2-3)n1", "assayed target": "HEK293", "toxicity at 120 μM (in words)": "toxic"}
{"compound": "C#Cc1ccc2c(c1)C(c1ccccc1F)=N[C@H](C)c1c(-c3nc(C(C)C)no3)ncn1-2", "assayed target": "HEK293", "toxicity at 120 μM (in words)": "some cytotoxicity"}
{"compound": "CC1N=C(c2ccccc2F)c2cc(Br)ccc2-n2cnc(-c3cnco3)c21 (racemic) [GL-III-76A]", "assayed target": "HEK293", "toxicity at 120 μM (in words)": "toxic"}

The compound CC1N=C(c2ccccc2F)c2cc(C#C[Si](C)(C)C)ccc2-n2cnc(-c3cnco3)c21 (centres unmarked) showed toxicity at 120 μM (in words) equal to toxic

----------
assayed target: DOR (δ opioid receptor) (Homo sapiens, UniProt P41143)
Construct: expressed in transfected cells; host or cells: HEK293
Sequence (P41143 whole entry): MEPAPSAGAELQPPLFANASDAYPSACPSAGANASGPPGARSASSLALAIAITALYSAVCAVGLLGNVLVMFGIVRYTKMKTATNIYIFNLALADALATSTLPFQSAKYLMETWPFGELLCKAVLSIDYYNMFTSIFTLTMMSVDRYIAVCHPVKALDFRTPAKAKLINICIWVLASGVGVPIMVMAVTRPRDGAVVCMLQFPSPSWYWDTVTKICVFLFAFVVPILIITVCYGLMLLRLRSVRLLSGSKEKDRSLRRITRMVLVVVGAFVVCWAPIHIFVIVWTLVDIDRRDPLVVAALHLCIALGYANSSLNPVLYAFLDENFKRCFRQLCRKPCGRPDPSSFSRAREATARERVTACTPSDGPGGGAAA
assay comment: DOR radioligand binding ([3H]-DADLE, HEK293 cell homogenates)
assay setup: Percent inhibition at 10,000 nM; [3H]-DADLE
Some compounds, each annotated with its measured inhibition at 10 µM.
Enter your answer as a number in %; do not include the unit.

// worked examples, inhibition at 10 µM included
{"test smiles": "C#Cc1ccc2c(c1)C(c1ccccc1F)=N[C@H](C)c1c(-c3nc(C(C)C)no3)ncn1-2", "inhibition at 10 µM (%)": 5}
{"test smiles": "C#Cc1ccc2c(c1)C(c1ccccc1F)=N[C@H](C)c1c(C(N)=O)ncn1-2", "inhibition at 10 µM (%)": 0}
{"test smiles": "CCOC(=O)c1ncn2c1[C@H](C)N=C(c1ccccc1F)c1cc(C3CC3)ccc1-2", "inhibition at 10 µM (%)": 41}

Record summary for `C#Cc1ccc2c(c1)C(c1ccccc1F)=N[C@@H](C)c1c(-c3cnco3)ncn1-2` : reported inhibition at 10 µM = 9

Entry `C#Cc1ccc2c(c1)C(c1ccccn1)=N[C@H](C)c1c(-c3nc(CC)no3)ncn1-2` , inhibition at 10 µM reported as 0

What the record says about `CCOC(=O)c1ncn2c1[C@@H](C)N=C(c1ccccc1F)c1cc(C3CC3)ccc1-2` : inhibition at 10 µM is 13

Record `Cc1noc(-c2ncn3c2[C@@H](C)N=C(c2ccccc2F)c2cc(C4CC4)ccc2-3)n1` , field inhibition at 10 µM: 31

Consider `Brc1ccc2c(c1)C(c1ccccc1)=NCc1c(-c3cnco3)ncn1-2` . Its measured inhibition at 10 µM is 32

----------
Tested on: Mouse microglia
assay comment: NO production (Griess assay), LPS/IFNγ-activated mouse microglia
Format: cell-based
assay setup: 10 μM, 24 hours, 1 μM GABA, LPS/IFNγ
measure name: Inhibition of NO production (%) Mouse microglia 10 μM
State the answer as a number, implicitly in %.

Some solved cases for reference:
{"molecule": "CC1N=C(c2ccccc2F)c2cc(C#C[Si](C)(C)C)ccc2-n2cnc(-c3cnco3)c21 (stereo not drawn) [GL-III-77]", "unit tag": "%", "measured value": 31}
{"molecule": "CCOC(=O)c1ncn2c1[C@@H](C)N=C(c1ccccc1F)c1cc(Cl)ccc1-2 [GL-III-53]", "unit tag": "%", "measured value": 85}

Entry C#Cc1ccc2c(c1)C(c1ccccn1)=NCC(=O)N2 [GL-III-58] ; Inhibition of NO production (%) Mouse microglia 10 μM = 48

// CC1N=C(c2ccccc2F)c2cc(C#C[Si](C)(C)C)ccc2-n2cnc(-c3cnco3)c21 (stereo not drawn) [GL-III-72] : Inhibition of NO production (%) Mouse microglia 10 μM value = 21

Kindly note the recorded Inhibition of NO production (%) Mouse microglia 10 μM for CCOC(=O)c1ncn2c1[C@@H](C)N=C(c1ccccn1)c1cc(C#C[Si](C)(C)C)ccc1-2 [GL-II-18] , which is 49

Data credit: patent US20240279232A1
